Assay: Rat pharmacokinetics, i.v. bolus
Type: in vivo, Sprague-Dawley rats
Details: rat, in vivo, iv, 45 mg/kg, male Sprague-Dawley rats, single 45 mg/kg slow i.v. bolus, plasma, LC-MS/MS, noncompartmental, n = 3 to 5/dose
Starred links: 1 amine or outer side, 2 acyl side, 3 side chain; linkers in the order of their positions; H or OH if unused. Positions of bridges follow the written chain, without caps; N, C: chain ends. Non-standard residues stand in square brackets, D forms with d. Residues, ends and D or L forms follow the SMILES beside them. *: point of attachment. Orn(4R-OH,5R-OCH2CH2NMe3+) = C[N+](C)(C)CCO[C@@H](N[*:3])[C@H](O)C[C@H](N[*:1])C(=O)[*:2]; pTerphenylCO(4''-OnC5H11) = CCCCCOc1ccc(-c2ccc(-c3ccc(C(=O)*)cc3)cc2)cc1; hTyr(3S-OH,4S-OH) = N[C@H](C(=O)O)[C@H](O)[C@@H](O)c1ccc(O)cc1; Pro(3S-OH,4S-Me) = C[C@H]1CN[C@H](C(=O)O)[C@H]1O; Hyp = O=C(O)[C@@H]1C[C@@H](O)CN1
reported.metric: AUC(0-t) (µg·h/mL)
Value expressed in µg·h/mL; do not type the unit.

Looking up CCCCCOc1ccc(-c2ccc(-c3ccc(C(=O)N[C@H]4C[C@@H](O)[C@@H](OCC[N+](C)(C)C)NC(=O)[C@@H]5[C@@H](O)[C@@H](C)CN5C(=O)[C@H]([C@@H](C)O)NC(=O)[C@H]([C@H](O)[C@@H](O)c5ccc(O)cc5)NC(=O)[C@@H]5C[C@@H](O)CN5C(=O)[C@H]([C@@H](C)O)NC4=O)cc3)cc2)cc1 [CD101] ({pTerphenylCO(4''-OnC5H11)}-[Orn(4R-OH,5R-OCH2CH2NMe3+)]T[Hyp][hTyr(3S-OH,4S-OH)]T[Pro(3S-OH,4S-Me)]; lactam 1-C) , I found its AUC(0-t) recorded as 1610

Cited source for all entries: paper PMC5365648
